- assay.remarks: Pharmacokinetic study in rats
- run.parameters: rat, plasma, po, 3 mg/kg
Decide using half-life alone. Strictly below 2 h: true. Equal to or above 2 h: false.

[Q] In the record for `COc1cc2c(cc1Nc1ncc(Cl)c(Nc3cccnc3N3CCCC3=O)n1)OC[C@H]1CN(C3CN(C)C3)CCN21` , is half-life less than 2 h?
[A] false

[Q] In the record for `CCc1cc2c(cc1Nc1ncc(C(F)(F)F)c(NCCCN3CCOCCC3=O)n1)OC[C@H]1CN(C)CCN21` , is half-life less than 2 h?
[A] true

[Q] In the record for `COc1cc2c(cc1Nc1ncc(C(F)(F)F)c(CCc3ccccc3CC(N)=O)n1)OC[C@H]1CN(C3CCOCC3)CCN21` , is half-life less than 2 h?
[A] true

[Q] In the record for `CCc1cc2c(cc1Nc1ncc(C(F)(F)F)c(NCCCN3CCOCCC3=O)n1)OC[C@@H]1CN(C3CCN(C)CC3)CCN21` , is half-life less than 2 h?
[A] false

[Q] In the record for `COc1cc2c(cc1Nc1ncc(C(F)(F)F)c(CCc3ccccc3CC(N)=O)n1)OC[C@H]1CN(C)CCN21` , is half-life less than 2 h?
[A] false

[Q] In the record for `COc1cc2c(cc1Nc1ncc(Cl)c(Nc3ccccc3S(=O)(=O)C(C)C)n1)OC[C@@H]1CN(C3CCN(C)CC3)CCN21` , is half-life less than 2 h?
[A] false

[Q] In the record for `CCc1cc2c(cc1Nc1ncc(C(F)(F)F)c(NCCCN3CCOCCC3=O)n1)OC[C@H]1CN(C3CCN(C)CC3)CCN21` , is half-life less than 2 h?
[A] false

[Q] In the record for `COc1cc2c(cc1Nc1ncc(Cl)c(Nc3cccnc3N3CCCC3=O)n1)OC[C@H]1CN(C3CCOCC3)CCN21` , is half-life less than 2 h?
[A] true

[Q] In the record for `CNC(=O)c1ccccc1Nc1cc(Nc2cc3c(cc2OC)N2CCN(C4CN(C)C4)C[C@H]2CO3)ncc1C(F)(F)F` , is half-life less than 2 h?
[A] false

[Q] In the record for `CCc1cc2c(cc1Nc1ncc(C(F)(F)F)c(NCCCN3CCCCC3=O)n1)OC[C@H]1CN(C3CCN(C)CC3)CCN21` , is half-life less than 2 h?
[A] false

[Q] In the record for `COc1cc2c(cc1Nc1ncc(C(F)(F)F)c(CCc3ccccc3CC(N)=O)n1)OC[C@H]1CN(C3CC3)CCN21` , is half-life less than 2 h?
[A] true

[Q] In the record for `CNC(=O)c1ccccc1Nc1cc(Nc2cc3c(cc2OC)N2CCN(C4CCN(C)CC4)C[C@H]2CO3)ncc1C(F)(F)F` , is half-life less than 2 h?
[A] false

[Q] In the record for `CCC(=O)N1CCN2c3cc(OC)c(Nc4ncc(Cl)c(Nc5cccnc5N5CCCC5=O)n4)cc3OC[C@H]2C1` , is half-life less than 2 h?
[A] true

[Q] In the record for `COc1cc2c(cc1Nc1ncc(C(F)(F)F)c(CCc3ccccc3CC(N)=O)n1)OC[C@H]1CNCCN21` , is half-life less than 2 h?
[A] false

[Q] In the record for `CNC(=O)c1ccccc1Nc1cc(Nc2cc3c(cc2OC)N2CCN(C4CCOCC4)C[C@H]2CO3)ncc1C(F)(F)F` , is half-life less than 2 h?
[A] false

[Q] In the record for `CCc1cc2c(cc1Nc1ncc(C(F)(F)F)c(NCCCN3CCOCCC3=O)n1)OC[C@H]1CN(C3CCOCC3)CCN21` , is half-life less than 2 h?
[A] true

[Q] In the record for `CCc1cc2c(cc1Nc1ncc(C(F)(F)F)c(NCCCN3CCOCCC3=O)n1)OC[C@H]1CNCCN21` , is half-life less than 2 h?
[A] false

[Q] In the record for `COc1cc2c(cc1Nc1ncc(Cl)c(Nc3cccnc3N3CCCC3=O)n1)OC[C@H]1CN(C(C)=O)CCN21` , is half-life less than 2 h?
[A] true

[Q] In the record for `COc1cc2c(cc1Nc1ncc(C(F)(F)F)c(CCc3ccccc3CC(N)=O)n1)OC[C@H]1CN(C(C)=O)CCN21` , is half-life less than 2 h?
[A] true

The origin of these recorded values is patent EP4653444A1.
